Numbers sourced from PubChem BioAssay (NCI).

- System: UACC-257 melanoma
- Experiment summary: NCI tumour cell line growth inhibition, 48 h
Below is a list of entries, each paired with its recorded GI50 value.

The cases that follow already have their GI50 on record.
// query GI50 value for entry `O=C(/C=C/c1ccc2c(c1)OCO2)c1ccccc1`
18.6 µM

Would you kindly repeat that for `COc1cc(-c2ccc(-[n+]3nc(-c4ccc([N+](=O)[O-])cc4)nn3-c3ccc([N+](=O)[O-])cc3)c(OC)c2)ccc1-[n+]1nc(-c2ccc([N+](=O)[O-])cc2)nn1-c1ccc([N+](=O)[O-])cc1` ?
2.83 µM

Would you kindly repeat that for `Cc1cc(S(=O)(=O)/N=C(\N)n2nc(C)c(C)c2C)c(SCc2ccccc2)cc1Cl` ?
63.8 µM

Another compound: `O=C(Nc1nc(-c2ccc(Cl)cc2)cs1)c1ccc(O)c(O)c1`
6.29 µM

And then `CCOC(=O)c1ccc2[nH]c(Cc3[nH]c4ccc(C(=O)OCC)cc4c3C)c(C)c2c1` , what is it?
9.4 µM

Try `COc1cc(/C=C/C(=O)CC(=O)/C=C/c2ccc(OC(=O)CCNC34CC5CC(CC(C5)C3)C4)c(OC)c2)ccc1OC(=O)CCNC12CC3CC(CC(C3)C1)C2` next.
4.24 µM

Continuing:
Would you kindly share the measured GI50 for `O=S(=O)(NCCNc1cc(-c2cn(-c3ccccc3)nc2-c2cccc(O)c2)ccn1)c1ccc(F)cc1` ?
2.85 µM

Cool, now `N#Cc1c(N)nc(N2CCOCC2)c(C#N)c1-c1cccc(O)c1`
> 100 µM
